- testedTarget: human B1R receptor (Homo sapiens, UniProt P46663)
- Construct: host or cells: CHO K1 cells (Chinese hamster ovary), stably transfected
- experimentalDetails: Functional study on the bradykinin receptor 1 (B1R), FLIPR Ca2+ assay, hB1R cells
- Format: cell-based
- conditionSummary: CHO-K1, test substance 10 μM, agonist Lys-Des-Arg9-bradykinin 0.5 nM, % inhibition compared with the maximum achievable inhibition, read-out: B1R Antagonism, human [10 μM] % Inhibition
measureName: inhibition at 10 µM (%)
Numbers only, in %.

Recorded results for 2 compounds are shown here.
- compound: "COc1cc(C)c(S(=O)(=O)N2CCCC2COCC(=O)N2CCN(c3cc(Cl)ccc3C)CC2)c(C)c1 (stereo not shown)"
  testedTarget: "human B1R receptor (Homo sapiens, UniProt P46663)"
  inhibition at 10 µM / %: 94.9
- compound: "Cc1ccc(C)n1CCN1CCN(C(=O)COCC2CCCN2S(=O)(=O)c2c(Cl)cccc2Cl)CC1 (stereo not shown)"
  testedTarget: "human B1R receptor (Homo sapiens, UniProt P46663)"
  inhibition at 10 µM / %: 101

For every item below, please supply its inhibition at 10 µM.
1. CN1CCC(N2CCN(C(=O)COCC3CCCCN3S(=O)(=O)c3ccc(Cl)c(C(F)(F)F)c3)CC2)CC1 (stereo not shown)
2. COc1cc(C)c(S(=O)(=O)N2CCCCC2COCC(=O)Nc2ccc(N3CCOCC3)nc2)c(C)c1 (stereo not shown)
3. O=C(COCC1CCCCN1S(=O)(=O)c1ccc(Cl)c(Cl)c1)N1CCN(c2ccc(F)cc2)CC1 (stereo not shown)
4. COc1cc(C)c(S(=O)(=O)N2CCCC2COCC(=O)N2CCN(Cc3ccc4c(c3)OCO4)CC2)c(C)c1 (stereo not shown)
5. COc1cc(C)c(S(=O)(=O)N2CCCCC2COCC(=O)N(C)CCC2CCC(N(C)C)CC2)c(C)c1 (stereo not shown)

1: 102; 2: 24.7; 3: 61.5; 4: 101; 5: 104

---

- testedTarget: human B1R receptor (Homo sapiens, UniProt P46663)
- Construct: host or cells: CHO K1 cells (Chinese hamster ovary), stably transfected
- Sequence (P46663 1-353): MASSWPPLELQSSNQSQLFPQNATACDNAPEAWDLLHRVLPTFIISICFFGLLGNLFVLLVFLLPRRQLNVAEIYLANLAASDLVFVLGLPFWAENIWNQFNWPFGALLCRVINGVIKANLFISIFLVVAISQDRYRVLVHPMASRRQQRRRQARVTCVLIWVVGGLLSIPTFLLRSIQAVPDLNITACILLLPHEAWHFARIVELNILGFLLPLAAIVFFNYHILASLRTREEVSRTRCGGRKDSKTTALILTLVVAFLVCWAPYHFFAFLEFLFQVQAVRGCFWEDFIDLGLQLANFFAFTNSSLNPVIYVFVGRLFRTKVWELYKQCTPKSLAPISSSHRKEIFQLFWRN
- experimentalDetails: Functional study on the bradykinin receptor 1 (B1R), FLIPR Ca2+ assay, hB1R cells
- Assay type: cell-based
- conditionSummary: CHO-K1, test substance 10 μM, agonist Lys-Des-Arg9-bradykinin 0.5 nM, % inhibition compared with the maximum achievable inhibition, read-out: B1R Antagonism, human [10 μM] % Inhibition
measureName: inhibition at 10 µM (%)
Numbers only, in %.

- molecule: "CCn1nccc1NC(=O)COCC1CCCCN1S(=O)(=O)c1c(C)cc(OC)cc1C (centres unmarked) [Example 257]"
  testedTarget: "human B1R receptor (Homo sapiens, UniProt P46663)"
  uom: "%"
  inhibition at 10 µM: 34.3
- molecule: "COc1ccc(CN2CCN(C(=O)COCC3CCCCN3S(=O)(=O)c3c(C)cc(OC)cc3C)CC2)cc1 (centres unmarked) [Example 386]"
  testedTarget: "human B1R receptor (Homo sapiens, UniProt P46663)"
  uom: "%"
  inhibition at 10 µM: 101
- molecule: "CN(C)CCCN1CCN(C(=O)COCC2CCCN2S(=O)(=O)c2c(Cl)cccc2Cl)CC1 (centres unmarked) [Example 566]"
  testedTarget: "human B1R receptor (Homo sapiens, UniProt P46663)"
  uom: "%"
  inhibition at 10 µM: 103

Consider the following items and state reported inhibition at 10 µM for each.
1. Cc1cccc(N(Cc2ccccc2)C(=O)COCC2CCCCN2S(=O)(=O)c2cc(Cl)sc2Cl)n1 (centres unmarked) [Example 515]
2. Cc1ccc(C)n1CCN1CCN(C(=O)COCC2CCCCN2S(=O)(=O)c2c(Cl)cccc2Cl)CC1 (centres unmarked) [Example 280]
3. Cc1cc(C)c(S(=O)(=O)N2CCCCC2COCC(=O)N2CCN(c3nc(Cc4ccccc4)cs3)CC2)c(C)c1 (centres unmarked) [Example 234]
4. CN(C)CCN(Cc1ccccc1)C(=O)COCC1CCCCN1S(=O)(=O)c1c(Cl)cccc1Cl (centres unmarked) [Example 489]
5. COc1cc(C)c(S(=O)(=O)N2CCCCC2COCC(=O)NCCN2CCCC2)c(C)c1 (centres unmarked) [Example 343]

30.9
104
52
99.3
80

---

- testedTarget: human B1R receptor (Homo sapiens, UniProt P46663)
- Construct: host or cells: CHO K1 cells (Chinese hamster ovary), stably transfected
- Sequence (P46663 1-353): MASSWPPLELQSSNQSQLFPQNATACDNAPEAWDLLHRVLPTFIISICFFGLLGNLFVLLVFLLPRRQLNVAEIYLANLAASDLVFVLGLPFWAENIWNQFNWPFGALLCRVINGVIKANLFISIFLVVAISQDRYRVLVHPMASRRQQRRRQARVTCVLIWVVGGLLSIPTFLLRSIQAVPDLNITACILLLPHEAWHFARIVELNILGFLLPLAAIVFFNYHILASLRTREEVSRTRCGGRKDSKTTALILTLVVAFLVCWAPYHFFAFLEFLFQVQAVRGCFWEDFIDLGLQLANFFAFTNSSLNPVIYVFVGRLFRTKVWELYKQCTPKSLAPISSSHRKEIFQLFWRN
- experimentalDetails: Functional study on the bradykinin receptor 1 (B1R), FLIPR Ca2+ assay, hB1R cells
- Assay type: cell-based
- conditionSummary: CHO-K1, test substance 10 μM, agonist Lys-Des-Arg9-bradykinin 0.5 nM, % inhibition compared with the maximum achievable inhibition, read-out: B1R Antagonism, human [10 μM] % Inhibition
Where a name gives a salt, the structure may show the parent alone.
Assign inhibition at 10 µM to each entry below.
Numbers only, in %.

Known results for compounds:
- compound: "CN1CCC(N2CCN(C(=O)COCC3Cc4ccccc4CN3S(=O)(=O)c3ccc4ccccc4c3)CC2)CC1 (stereo not drawn) [Example 178, dihydrochloride]"
  testedTarget: "human B1R receptor (Homo sapiens, UniProt P46663)"
  measureName: "inhibition at 10 µM"
  assayResult: 102
- compound: "COc1cc(C)c(S(=O)(=O)N2CCCCC2COCC(=O)N2CCN(CCC3CCN(C)CC3)CC2)c(C)c1 (stereo not drawn)"
  testedTarget: "human B1R receptor (Homo sapiens, UniProt P46663)"
  measureName: "inhibition at 10 µM"
  assayResult: 107
- compound: "COc1cc(C)c(S(=O)(=O)N2CCCC2COCC(=O)N2CCN(c3ncc(C(F)(F)F)cc3Cl)CC2)c(C)c1 (stereo not drawn)"
  testedTarget: "human B1R receptor (Homo sapiens, UniProt P46663)"
  measureName: "inhibition at 10 µM"
  assayResult: 92.3

Value sought for every listed compound: inhibition at 10 µM.
1. COc1cc(C)c(S(=O)(=O)N2CCCC2COCC(=O)NCC(c2ccccc2Cl)N2CCCC2)c(C)c1 (stereo not drawn)
2. COc1cc(C)c(S(=O)(=O)N2CCCC2COCC(=O)NCc2ccc(CN3CCCC3)cc2)c(C)c1 (stereo not drawn)
3. COc1cc(C)c(S(=O)(=O)N2CCCCC2COCC(=O)Nc2ccc3ccccc3n2)c(C)c1 (stereo not drawn)
4. Cc1cc(C)c(S(=O)(=O)N2Cc3ccccc3CC2COCC(=O)NCc2cccc(N3CCOCC3)c2)c(C)c1 (stereo not drawn)

1: 96.7; 2: 106; 3: 7.44; 4: 65.7

---

Provide the reported B1R Antagonism, human [10 μM] % Inhibition of each item.
- testedTarget: human B1R receptor (Homo sapiens, UniProt P46663)
- Construct: host or cells: CHO K1 cells (Chinese hamster ovary), stably transfected
- experimentalDetails: Functional study on the bradykinin receptor 1 (B1R), FLIPR Ca2+ assay, hB1R cells
- Format: cell-based
- conditionSummary: test substance 10 μM; hB1R CHO K1 cells; agonist Lys-Des-Arg9-bradykinin 0.5 nM; % inhibition compared with the maximum achievable inhibition
Answers are plain numbers, in %.

# annotated cases, reported B1R Antagonism, human [10 μM] % Inhibition shown
- compound: "O=C(COCC1CCCCN1S(=O)(=O)c1cccc2ccccc12)N1CCCN(Cc2ccccc2)CC1 (stereo not shown) [Example 6]"
  uom: "%"
  assayResult: 102.21
- compound: "COc1cc(C)c(S(=O)(=O)N2CCCCC2COCC(=O)NCc2ccc(N3CCN(C)CC3)cc2)c(C)c1 (stereo not shown) [Example 3]"
  uom: "%"
  assayResult: 103.84
- compound: "O=C(COCC1CCCN1S(=O)(=O)c1c(Cl)cc(Cl)cc1Cl)N1CCC(N2CCCCC2)CC1 (stereo not shown) [Example 298]"
  uom: "%"
  assayResult: 105.09
- compound: "COc1cc(C)c(S(=O)(=O)N2CCCCC2COCC(=O)N2CCC(N3CCN4CCCCC4C3)CC2)c(C)c1.Cl.Cl (stereo not shown) [Example 99]"
  uom: "%"
  assayResult: 103.76

State the recorded B1R Antagonism, human [10 μM] % Inhibition for every item in the following list.
1. COc1cc(C)c(S(=O)(=O)N2CCCCC2COCC(=O)N2CCC(N3CCN(C)CC3)CC2)c(C)c1 (stereo not shown) [Example 524]
2. CN(C(=O)COCC1CCCCN1S(=O)(=O)c1cccc2ccccc12)C(CN1CCOCC1)c1ccccc1 (stereo not shown) [Example 47]
3. COc1cc(C)c(S(=O)(=O)N2CCC[C@H]2COCC(=O)N2CCN(C3CCN(C)CC3)CC2)c(C)c1 [Example 180]

1: 101.62; 2: 68.07; 3: 104

Reference source for all entries: patent US8435978B2
